Data credit: ChEMBL document CHEMBL4118182

- system tested: Bromodomain-containing protein 4 (Homo sapiens, UniProt O60885)
- assay overview: Inhibition of recombinant human N-terminal His6-tagged BRD4 by TR-FRET assay
A collection of molecules and their measured pIC50
// pIC50 is dimensionless: -log10 of concentration (M)

Reference set, count: 2
• Cc1ccc(S(=O)(=O)Nc2ccc3c(c2)n(C)c(=O)n3C)c(C)c1 = 5.60
• COc1ccc(OC)c(CCC(=O)Nc2ccc3c(c2)n(C)c(=O)n3C)c1 = 4.22

Ask: Please look up its pIC50: Cc1nc(-c2cccc(NC(=O)c3ccc4[nH]c(C)c(C)c4c3)c2)cs1
Result: 5.13

###

- system tested: Bromodomain-containing protein 4 (Homo sapiens)
- assay overview: Binding affinity to recombinant human N-terminal His6-tagged BRD4 bromodomain 1 (44 to 168 residues) expressed in Escherichia coli BL21(DE3) assessed as increase in melting temperature at 50 to 200 uM by differential scanning fluorimetry
Activity calls are given as the source filed them. The calls are words filed in the database; no cut-off is given here.
Thanks in advance; please answer with one of these: active, inactive

Before answering, review these 5 worked examples.
• Cc1cc2cc(NC(=O)c3sc4nc(C(F)(F)F)ccc4c3C)ccc2[nH]1 = active
• Cc1cc2cc(N)ccc2[nH]1 = active
• COCCOc1ccccc1CNc1ccc2c(c1)n(C)c(=O)n2C = active
• Cn1c(=O)n(C)c2cc(NC(=O)c3cc4c(s3)CCC4)ccc21 = active
• Cc1nc(-c2cccc(N)c2)cs1 = active

Ask: Test call, this compound: Nc1ccc2nc(N3CCCC3)sc2c1
Result: active

Ask: Test call, this compound: Cc1cc2cc(NC(=O)c3ccc(Oc4ccc(C(F)(F)F)cn4)cc3)ccc2[nH]1
Result: active

Ask: Test call, this compound: CC1(C)C(=O)Nc2cc(C(=O)O)ccc21
Result: active

Ask: Test call, this compound: Cc1nc(-c2cccc(NC(=O)c3ccc4[nH]c(C)c(C)c4c3)c2)cs1
Result: active

Ask: Test call, this compound: Cn1cc(NC(=O)c2occc2COc2ccccc2)ccc1=O
Result: active

Ask: Test call, this compound: Cc1nc2ccc(C(=O)O)cc2o1
Result: active

###

- system tested: Bromodomain-containing protein 4 (Homo sapiens)
- assay overview: Binding affinity to recombinant human N-terminal His6-tagged BRD4 bromodomain 1 (44 to 168 residues) expressed in Escherichia coli BL21(DE3) assessed as change in melting temperature at 20 uM by differential scanning fluorimetry
// boundary case: ΔTm equal to 2 °C maps to 0.0; strictly smaller maps to 1.0

• CC1(C)C(=O)Nc2cc(C(=O)O)ccc21 = 0.0
• Cc1cc2cc(NC(=O)c3ccc(Oc4ccc(C(F)(F)F)cn4)cc3)ccc2[nH]1 = 1.0
• Cn1cc(NC(=O)c2occc2COc2ccccc2)ccc1=O = 1.0
• CC1Oc2ccc(N)cc2NC1=O (stereo unspecified) = 0.0

Here is the next item to consider.
Ask: Check if ΔTm falls below 2 °C for COCCOc1ccccc1CNc1ccc2c(c1)n(C)c(=O)n2C .
Result: 1.0

###

A collection of compounds and their measured IC50
- system tested: Bromodomain-containing protein 4 (Homo sapiens, UniProt O60885)
- assay overview: Inhibition of recombinant human N-terminal His6-tagged BRD4 by TR-FRET assay
API: value field is a number in µM; no unit string.

Reference set, count: 5
* Cn1c(=O)n(C)c2cc(NC(=O)c3cc4c(s3)CCC4)ccc21 | 1.9
* Cc1cc2cc(NC(=O)c3ccc(Oc4ccc(C(F)(F)F)cn4)cc3)ccc2[nH]1 | 27
* COc1cccc(C(=O)Nc2ccc3c(c2)n(C)c(=O)n3C)c1 | 15.8
* Cn1cc(NC(=O)c2occc2COc2ccccc2)ccc1=O | 3
* COCCOc1ccccc1CNc1ccc2c(c1)n(C)c(=O)n2C | 21

Consider now this further compound.
Ask: Please look up its IC50: Cc1cc2cc(NC(=O)c3sc4nc(C(F)(F)F)ccc4c3C)ccc2[nH]1
Result: 24

###

- system tested: Bromodomain-containing protein 4 (Homo sapiens, UniProt O60885)
- assay overview: Binding affinity to recombinant human N-terminal His6-tagged BRD4 bromodomain 1 (44 to 168 residues) expressed in Escherichia coli BL21(DE3) assessed as increase in melting temperature at 50 to 200 uM by differential scanning fluorimetry
Active and inactive are the calls of the source. The rule behind the calls is not given here.
Thanks in advance; please answer with one of these: yes = active, no = inactive

Before answering, review these 5 worked examples.
* O=C1C(=O)N(CCCOc2ccccc2)c2ccc(Cl)cc21 | no
* Cc1ccc(C(=O)Nc2ccc3nc(N4CCCC4)sc3c2)cc1[N+](=O)[O-] | yes
* Cn1c(=O)n(C)c2cc(N)ccc21 | yes
* CC1CCCC(C)N1C(=O)CSc1nc2sc3c(c2c(=O)n1C)CCCC3 (stereo unspecified) | no
* COc1ccc(OC)c(CCC(=O)Nc2ccc3c(c2)n(C)c(=O)n3C)c1 | yes

Here is the next item to consider.
Ask: Test call, this molecule: CC1Oc2ccc(N)cc2NC1=O (stereo unspecified)
Result: yes
